These measurements were taken from the supplement of paper PMC10126150.

test system: ATP; assay: switch fluorescence ratio, 500 uM ATP over buffer (Cy3 cluster intensity, sum of 5 cycles each) (fold (ratio)); higher = stronger signal-on switching upon ATP binding; sequences stand for … in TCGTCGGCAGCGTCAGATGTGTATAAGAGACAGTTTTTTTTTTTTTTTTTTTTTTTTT…TC; settings: aptamer strand: ATP DNA aptamer (quencher-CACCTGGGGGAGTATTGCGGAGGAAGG + anchor), 100 nM annealed; ATP concentration: 500 uM;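 note: ATP exposure 15 min at 22 °C before imaging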
# binarize switch fluorescence ratio: threshold 1 inclusive, high side 1.0, low side 0.0

# SEQUENCE TEXT, GROUP
records = [
    ("GCTACCTGGA", 1.0),
    ("CCGAGTGCAG", 1.0),
    ("GGGGGTGGCC", 0.0),
    ("GGTAGGTGTT", 1.0),
    ("CAGGTATTAC", 1.0),
    ("TACCCAAAAT", 1.0),
    ("CAAACCAACG", 1.0),
    ("TGAAGGGGCA", 0.0),
    ("TGTTTGTTGT", 1.0),
]

* * *

tested on: ATP; test: switch fluorescence ratio, 500 uM ATP over buffer (Cy3 cluster intensity, sum of 5 cycles each) (fold (ratio)); higher = stronger signal-on switching upon ATP binding; sequences stand for … in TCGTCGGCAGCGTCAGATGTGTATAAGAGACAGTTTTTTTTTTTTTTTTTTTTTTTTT…TC; details: aptamer strand: ATP DNA aptamer (quencher-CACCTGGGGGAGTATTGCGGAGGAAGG + anchor), 100 nM annealed; ATP concentration: 500 uM;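 note: ATP exposure 15 min at 22 °C before imaging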
MEASURED PROPERTY: switch fluorescence ratio

# SEQUENCE TEXT, REPORTED RESULT
data = [
    ("CTGAATTAGG", 0.988),
    ("AGTGTATATG", 1.1),
    ("TCTACTGGGC", 1.05),
    ("GAGAGGTTTG", 0.982),
    ("AGTTGAACCC", 0.987),
    ("ACCCCTTGAT", 1.04),
    ("GGGCATGGCT", 0.99),
    ("TTTGATATTC", 0.971),
    ("GGAAACCCGC", 1.14),
    ("TAGCTTTGGG", 1),
    ("GATGTTGTGA", 1),
    ("TCCCGGCAGA", 0.997),
]

* * *

test system: ATP; experiment: switch fluorescence ratio, 500 uM ATP over buffer (Cy3 cluster intensity, sum of 5 cycles each) (fold (ratio)); higher = stronger signal-on switching upon ATP binding; sequences stand for … in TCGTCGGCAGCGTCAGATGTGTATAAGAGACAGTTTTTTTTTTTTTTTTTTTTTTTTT…TC; conditions: aptamer strand: ATP DNA aptamer (quencher-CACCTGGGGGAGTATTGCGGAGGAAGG + anchor), 100 nM annealed; ATP concentration: 500 uM;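 note: ATP exposure 15 min at 22 °C before imaging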

# SEQUENCE TEXT, TESTED ON, switch fluorescence ratio
measured = [
    ("TTGGATGTAA", "ATP", 1),
    ("AAGACTTCTT", "ATP", 0.987),
    ("TAGGGTAAAT", "ATP", 0.985),
    ("GTGAGGGTTT", "ATP", 0.976),
    ("CCTTGTAGGG", "ATP", 1.02),
    ("TGTAAGTTTC", "ATP", 1.04),
    ("TTTCCAGGCA", "ATP", 1.03),
    ("AGGGGTGGAG", "ATP", 1.02),
    ("AAATTTTGGG", "ATP", 1),
    ("AAATAGTGGG", "ATP", 0.986),
    ("ACTTATTTTT", "ATP", 1),
    ("AGTTAGGAAA", "ATP", 1.02),
]

* * *

tested on: ATP; assay: switch fluorescence ratio, 500 uM ATP over buffer (Cy3 cluster intensity, sum of 5 cycles each) (fold (ratio)); higher = stronger signal-on switching upon ATP binding; sequences stand for … in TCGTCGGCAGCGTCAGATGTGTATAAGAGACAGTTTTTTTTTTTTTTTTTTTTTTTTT…TC; details: aptamer strand: ATP DNA aptamer (quencher-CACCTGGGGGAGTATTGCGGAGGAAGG + anchor), 100 nM annealed; ATP concentration: 500 uM;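 note: ATP exposure 15 min at 22 °C before imaging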

# SEQUENCE TEXT, switch fluorescence ratio
rows = [
    ("TTTTGGCGGT", 0.971),
    ("CGCGCGTCGG", 0.978),
    ("CCTAATGGGC", 1.01),
    ("TGATCACACG", 1.02),
    ("ACGAATGTGC", 1.02),
    ("TTCCTAGGGA", 0.994),
    ("CGCTGACGGA", 1.01),
    ("TTTAGTGTGC", 1.01),
    ("ACGTGCTCGT", 0.991),
    ("GGAGGGATAA", 1.1),
    ("AGGAGATACC", 1.03),
    ("CATTTTGGGC", 0.992),
    ("TGGGTGATAG", 0.99),
    ("TCCTGATTTT", 1.02),
    ("GCTATTTAGT", 1.01),
    ("CAGGTAGGTT", 1.02),
    ("TTTAGTACGT", 1.02),
    ("GATTCGTACG", 1.01),
    ("GTGGTATATG", 0.997),
    ("GCCATTGAGG", 0.967),
    ("TGCTCCTTAG", 1.07),
    ("TTTTTAATCA", 0.987),
    ("TTGGTCGGGA", 1.15),
    ("ATTGTGTCTT", 0.99),
    ("CCGGGGGAAG", 1.04),
    ("ATGGGGGCAC", 0.971),
    ("TTTATCAGTT", 0.951),
    ("CGGAGGAGGG", 1.21),
    ("CAATAATATG", 0.993),
    ("GGTTCCGCGG", 1.11),
    ("GGGGGGAACA", 1.01),
    ("GACTTATTAT", 1),
    ("GGGTGGAGTT", 0.967),
    ("TCTATCATGA", 0.988),
    ("GATAGTGCTG", 1.05),
    ("GATTTGGCTC", 1),
    ("ATATGATTGA", 0.969),
    ("GATTGAGAAG", 0.996),
    ("TATGTGGTTG", 0.99),
    ("GGAAACAGGA", 1.02),
    ("CGTAATGGGG", 1.02),
    ("GAAAAAGGGG", 1.01),
    ("TAGGGGTAGG", 1.02),
    ("TAGGGGCAGG", 1.07),
    ("TTCCGGGAAA", 0.968),
    ("TTTAGCACGA", 1),
    ("AGTTAAGGGA", 0.991),
    ("CGGTGTTGTC", 0.964),
    ("AGAGGAGGGG", 1.01),
    ("AAGTCTGGGC", 1.01),
    ("GTCGTGGCAA", 1.04),
    ("GGGGGTGTTG", 1),
    ("TAGCTTGGCA", 0.991),
    ("GAGGGGAGGA", 1.04),
    ("TTGAGGCGAT", 1.23),
    ("ATGGGCAGCT", 1.02),
    ("TGGACCCGGC", 0.986),
    ("ACTTTGATGT", 1.01),
    ("GATGTGTTTT", 0.974),
    ("CCACCGGTAT", 1.69),
    ("AGTAACGGTA", 1.04),
    ("AGGAGATTAG", 0.978),
    ("GAGTAATGGG", 1),
    ("GACTTATTTA", 1.01),
    ("AATGTGCTGT", 0.983),
    ("CACTATTAGT", 0.979),
    ("TTAGGAATTT", 1.05),
    ("GCGGTTCAGC", 0.985),
    ("GGCCCCTTTT", 1.02),
    ("ACCCAAAATT", 1.05),
    ("ATTGGGGTTC", 1.01),
    ("GCGAGGGGGT", 0.979),
    ("GTGGGAATGG", 0.975),
    ("ATTCGCATGT", 1.15),
    ("GTGTTATAGG", 1),
    ("TATGAGGGCA", 1.02),
    ("TGGTGGCTTG", 0.991),
    ("GGCGCCGCTG", 1.02),
    ("GATCCACGTG", 1.03),
    ("GGATGGGGTG", 1.01),
    ("ATGATACAGG", 1.08),
]
